Source of measurements: ChEMBL document CHEMBL3124828

# System: OCI-AML2
# assay procedure: Cytotoxicity against human OCI-AML2 cells after 72 hrs by MTS assay
# Type: functional, cell-based
Activity calls are given as the source filed them. No cut-off for these calls is given here.
Response enum: active, inactive

Some solved entries appear below for comparison.
O=C(Nc1nc(N2CCOCC2)c2ncn(CCc3nnn[nH]3)c2n1)C1CCCCC1: inactive
CC(=O)OCOC(=O)Cn1cnc2c(Nc3ccc(F)cc3)nc(NCc3ccc(C4CCCCC4)cc3)nc21: inactive
c1cc(C2CCCCC2)ccc1CNc1nc(NC2CCCC2)c2ncn(CCc3nnn[nH]3)c2n1: inactive
CCOC(=O)Cn1cnc2c(NCc3ccco3)nc(NCc3ccc(C4CCCCC4)cc3)nc21: inactive
CC(C)(C)C(=O)OCOC(=O)Cn1cnc2c(N3CCOCC3)nc(NC(=O)C3CCCCC3)nc21: inactive
CC(=O)OCOC(=O)Cn1cnc2c(NCCC(C)C)nc(NCc3ccc(C4CCCCC4)cc3)nc21: inactive
NS(=O)(=O)OCCn1cnc2c(Nc3ccc(F)cc3)nc(NCc3ccc(C4CCCCC4)cc3)nc21: active
CC(=O)OCOC(=O)Cn1cnc2c(NC3CCCC3)nc(NCc3ccc(C4CCCCC4)cc3)nc21: inactive
O=[N+]([O-])c1ccc(Oc2nc(NCc3ccc(C4CCCCC4)cc3)nc3c2ncn3CCc2nnn[nH]2)cc1: inactive
CC(C)(C)C(=O)OCOC(=O)Cn1cnc2c(N3CCOCC3)nc(NCc3ccc(C4CCCCC4)cc3)nc21: inactive

Prompt: Hi team, can someone confirm the assay call for CCOC(=O)Cn1cnc2c(N3CCOCC3)nc(NCc3ccc(C4CCCCC4)cc3)nc21 ?
Response: inactive

Prompt: Hi, sorry to bother you, what did the test record for c1coc(CNc2nc(NCc3ccc(C4CCCCC4)cc3)nc3c2ncn3CCc2nnn[nH]2)c1 ?
Response: inactive

Prompt: # fetch the recorded call for CC(C)(C)C(=O)OCOC(=O)Cn1cnc2c(NC3CCCC3)nc(NCc3ccc(C4CCCCC4)cc3)nc21 here
Response: inactive

Prompt: # outcome recorded in this test, key = CC(=O)OCOC(=O)Cn1cnc2c(N3CCOCC3)nc(NCc3ccc(C4CCCCC4)cc3)nc21
Response: inactive

Prompt: Each compound tested received a call. Report the one for CC(C)(C)C(=O)OCOC(=O)Cn1cnc2c(Nc3ccc(F)cc3)nc(NCc3ccc(C4CCCCC4)cc3)nc21 .
Response: inactive

Prompt: Answer briefly: the call reported for CC(C)CCNc1nc(NCc2ccc(C3CCCCC3)cc2)nc2c1ncn2CC(=O)OCOC(=O)C(C)(C)C in this assay.
Response: inactive

Prompt: Dear all, I need the recorded test outcome for CC(=O)OCOC(=O)Cn1cnc2c(Oc3ccc([N+](=O)[O-])cc3)nc(NCc3ccc(C4CCCCC4)cc3)nc21 , thank you.
Response: inactive

====

# assayed target: Tyrosine-protein kinase JAK3 (Homo sapiens)
# Sequence (P52333 whole entry): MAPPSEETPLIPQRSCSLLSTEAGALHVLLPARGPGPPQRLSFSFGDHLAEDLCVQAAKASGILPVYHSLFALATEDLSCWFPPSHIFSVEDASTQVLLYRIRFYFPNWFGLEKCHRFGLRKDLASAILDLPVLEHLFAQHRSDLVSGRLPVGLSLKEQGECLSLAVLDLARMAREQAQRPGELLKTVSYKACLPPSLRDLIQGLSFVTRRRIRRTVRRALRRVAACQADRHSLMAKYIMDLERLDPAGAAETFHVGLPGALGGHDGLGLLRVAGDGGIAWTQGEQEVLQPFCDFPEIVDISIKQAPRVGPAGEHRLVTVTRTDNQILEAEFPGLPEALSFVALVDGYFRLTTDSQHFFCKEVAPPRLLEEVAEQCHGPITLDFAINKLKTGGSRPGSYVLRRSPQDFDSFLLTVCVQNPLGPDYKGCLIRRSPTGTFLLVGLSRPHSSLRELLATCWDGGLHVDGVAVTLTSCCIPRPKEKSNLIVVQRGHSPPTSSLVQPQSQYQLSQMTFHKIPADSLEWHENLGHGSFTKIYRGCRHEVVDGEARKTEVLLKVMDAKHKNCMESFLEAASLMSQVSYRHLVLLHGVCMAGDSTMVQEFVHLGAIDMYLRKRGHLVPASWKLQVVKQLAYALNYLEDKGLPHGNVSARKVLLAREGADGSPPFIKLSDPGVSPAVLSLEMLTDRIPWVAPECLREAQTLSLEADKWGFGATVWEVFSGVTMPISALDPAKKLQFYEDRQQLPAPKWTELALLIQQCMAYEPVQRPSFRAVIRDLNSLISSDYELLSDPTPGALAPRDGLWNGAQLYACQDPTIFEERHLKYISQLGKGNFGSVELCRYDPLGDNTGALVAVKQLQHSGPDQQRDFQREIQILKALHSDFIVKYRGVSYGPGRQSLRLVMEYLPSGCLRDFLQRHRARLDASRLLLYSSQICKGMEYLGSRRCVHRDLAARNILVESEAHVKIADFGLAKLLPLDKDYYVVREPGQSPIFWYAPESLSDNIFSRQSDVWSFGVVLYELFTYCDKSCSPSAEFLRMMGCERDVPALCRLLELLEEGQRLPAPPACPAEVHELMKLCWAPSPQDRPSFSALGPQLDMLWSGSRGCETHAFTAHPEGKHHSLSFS
recorded endpoint: pIC50
pIC50 here: minus log base 10 of the concentration, concentration in moles per litre.

Prompt: Give the reported value of pIC50 for this record: NS(=O)(=O)OCCn1cnc2c(Nc3ccc(F)cc3)nc(NCc3ccc(C4CCCCC4)cc3)nc21
Response: 4.98

====

# Tested on: MDA-MB-468
# assay procedure: Cytotoxicity against human MDA-MB-468 cells after 72 hrs by MTS assay
# Type: functional, cell-based
# assay setup: MDA-MB-468, 72 h
recorded endpoint: pEC50
Field pEC50 (float): negative decimal logarithm of the concentration in molar.

Prompt: Let me know recorded pEC50 for NS(=O)(=O)OCCn1cnc2c(Nc3ccc(F)cc3)nc(NCc3ccc(C4CCCCC4)cc3)nc21 , thanks.
Response: 4.70
